Target: T1, SNTB1, Q13884
T1 sequence (Q13884 107-205, limits assumed, looked up): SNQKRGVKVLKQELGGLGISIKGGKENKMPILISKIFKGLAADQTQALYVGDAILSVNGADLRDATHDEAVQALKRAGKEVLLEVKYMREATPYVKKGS
Experiment: holdup assay
Set-up: key: below the threshold = too weak to quantify, mostly under pKd 3.1 to 4
Conditions: plain residues with an end cap or a label only (N-terminal biotin on a linker: ttds)
measure: pKd

Worked examples follow.
INSERT INTO results (binder, measured_result) VALUES
  ('ERKLSSESQV [LRP4, O75096]', 4.05),
  ('IDNDTESTAL [ARHGAP17, Q68EM7]', 4.13),
  ('SVWLRKETRV [CYSLTR2, Q9NS75]', 5.5),
  ('RSLEEEESQL [GRASP, Q7Z6J2]', 3.89),
  ('GQDSREETQL [KCNT2, Q6UVM3]', 4.49),
  ('PKTPPTDTSV [KIR3DL3, Q8N743]', 'below the threshold'),
  ('QSARYRDTEL [TJP2, Q9UDY2]', 3.86),
  ('SRPQRTQTQV [HPV67-E6, A4U7F2]', 'below the threshold');

Here is another binder to look at.
// query Recorded pKd of IYVPEAQTRL [DLGAP4, Q9Y2H0] , please.
// result 4.2
